Sourced from the Kinase Knowledgebase extract (Sharma et al. 2016)

// pIC50 collected for PIK3CD (Human)
// pIC50 is dimensionless: -log10 of concentration (M)

The examples below pair each entry with its known result.
Cc1ccn2nc(Cn3nc(-c4cc(O)cc(NS(C)(=O)=O)c4)c4c(N)ncnc43)nc(N3C[C@@H](C)N[C@@H](C)C3)c12: 9.30
Cc1cc(C(=O)N(C)Cc2cccc(O)c2)cc(-c2nc([C@H](C)Nc3ncnc(N)c3C#N)nn3ccc(C)c23)c1: 8.77
Cc1ccn2nc([C@H](C)Nc3ncnc(N)c3-c3cc(O)cc(F)c3)nc(OCC3CCOCC3)c12: 7.21
Cc1ccn2nc([C@H](Cc3cccc(O)c3)Nc3ncnc(N)c3C#N)nc(N3C[C@@H](C)N[C@@H](C)C3)c12: 8.06

# input What pIC50 value was documented for this compound, Cc1ccn2nc(Cn3nc(-c4cc(O)cc(F)c4)c4c(N)ncnc43)nc(OC3CCN(C(C)C)CC3)c12 ?
# output 9.00

# input Also Cc1ccn2nc([C@H](C)Nc3ncnc(N)c3C#N)nc(-c3cc(O)cc(C(=O)NCCN(C)C)c3)c12 , if possible.
# output 8.44

# input Also COc1cccc(N(C)c2nc([C@H](C)Nc3ncnc(N)c3C#N)nn3ccc(C)c23)c1 , if possible.
# output 7.72

# input Also Cc1cc(-c2nc([C@H](C)Nc3ncnc(N)c3C#N)nn3ccc(C)c23)n(C)n1 , if possible.
# output 8.00

# input Also Cc1ccn2nc(Cn3nc(-c4cc(O)cc(F)c4)c4c(N)ncnc43)nc(OCCN3CCC(C(=O)O)CC3)c12 , if possible.
# output 9.22

# input Also Cc1ccn2nc([C@H](C)Nc3ncnc4[nH]cc(-c5cc(O)cc(NS(=O)(=O)CCN(C)C)c5)c34)nc(N3C[C@@H](C)N[C@@H](C)C3)c12 , if possible.
# output 8.21

# input Also Cc1ccn2nc(Cn3nc(-c4cc(O)cc(F)c4)c4c(N)ncnc43)nc(N(CCN(C)C)c3cccc(O)c3)c12 , if possible.
# output 10.00

# input Also CC(=O)N1[C@H](C)CN(c2nc([C@H](C)Nc3ncnc(N)c3C#N)nn3ccc(C)c23)C[C@@H]1C , if possible.
# output 7.34

# input Also C[C@H](Nc1ncnc(N)c1C#N)c1nc(OCC2CCOCC2)c2c(C#N)ccn2n1 , if possible.
# output 7.51
